# Test target: human mAChR M1 (Homo sapiens)
# Sequence (P11229 whole entry): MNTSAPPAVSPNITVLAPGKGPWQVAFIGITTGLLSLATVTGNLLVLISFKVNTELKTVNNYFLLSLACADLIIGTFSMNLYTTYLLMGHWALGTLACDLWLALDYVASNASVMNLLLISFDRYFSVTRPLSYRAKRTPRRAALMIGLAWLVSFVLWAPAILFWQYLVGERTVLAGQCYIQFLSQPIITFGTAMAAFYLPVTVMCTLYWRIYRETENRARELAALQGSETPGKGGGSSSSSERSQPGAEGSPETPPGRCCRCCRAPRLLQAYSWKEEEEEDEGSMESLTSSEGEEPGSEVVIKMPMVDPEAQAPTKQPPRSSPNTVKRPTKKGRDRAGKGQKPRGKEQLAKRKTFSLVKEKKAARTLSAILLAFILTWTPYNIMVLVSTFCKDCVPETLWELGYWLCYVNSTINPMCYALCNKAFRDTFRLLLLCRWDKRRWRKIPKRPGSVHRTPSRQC
# Run description: mAChR M1 cell-based functional assay (calcium mobilization), agonist mode: compound alone, Emax relative to acetylcholine maximum
# Condition label: relative to the maximum for acetylcholine
Measured property: Emax (%)

As a guide, the following entries are already answered.
INSERT INTO results (compound, measured_property, test_result) VALUES
  ('[2H]C1([2H])c2ncccc2C(=O)N1Cc1ccc(-c2cccc3nn(C([2H])([2H])[2H])cc23)cc1C(C)C [Compound 234]', 'Emax', 1),
  ('[2H]C1([2H])c2ncccc2C(=O)N1Cc1c(F)cc(-c2cccc3c2cnn3C(C)C)cc1F [Compound 64]', 'Emax', 2),
  ('[2H]C1([2H])c2ncccc2C(=O)N1Cc1c(F)cc(-c2cccc3nn(C)cc23)cc1OC [Compound 231]', 'Emax', 7),
  ('[2H]C1([2H])c2ncccc2C(=O)N1Cc1c(F)cc(-c2ccc(OCC3(C#N)CC3)c3nn(C)cc23)cc1F [Compound 174]', 'Emax', 26),
  ('[2H]C1([2H])c2ncccc2C(=O)N1Cc1ccc(-c2cc(C)c3nn(C)cc3c2)cc1F [Compound 25]', 'Emax', 4),
  ('[2H]C1([2H])c2ncccc2C(=O)N1Cc1ccc(-c2ccc3nn(C)cc3c2)cc1F [Compound 9]', 'Emax', 6),
  ('[2H]C1([2H])c2ncccc2C(=O)N1Cc1c(F)cc(-c2cc(F)c(F)c3c2cnn3C([2H])([2H])[2H])cc1F [Compound 252]', 'Emax', 2),
  ('[2H]C1([2H])c2ncccc2C(=O)N1Cc1c(F)cc(-c2cccc3nn(C([2H])([2H])[2H])cc23)cc1C1CCCC1 [Compound 224]', 'Emax', 1);

a = [2H]C1([2H])c2ncccc2C(=O)N1Cc1c(C)cc(-c2ccc(F)c3nn(C)cc23)cc1F [Compound 198]
b = [2H]C1([2H])c2ncccc2C(=O)N1Cc1c(F)cc(-c2cn(C)c(=O)c3c2cnn3C)cc1F [Compound 80]
c = [2H]C([2H])([2H])Oc1cnc2c(c1)C(=O)N(Cc1c(F)cc(-c3cccc4nn(C([2H])([2H])[2H])cc34)cc1F)C2([2H])[2H] [Compound 78]
d = [2H]C1([2H])c2ncccc2C(=O)N1Cc1c(F)cc(-c2cccc3nn(C([2H])([2H])[2H])cc23)cc1C(F)(F)F [Compound 226]
IN: Order each entry by recorded Emax, climbing from the minimum. Reply format: the labels, ordered as requested.
OUT: b, d, c, a

---

# Test target: human mAChR M1 (Homo sapiens)
# Run description: mAChR M1 cell-based functional assay (calcium mobilization), PAM mode: increase in the EC20 acetylcholine response
Measured property: Emax (%)

INSERT INTO assay_data (compound, measured_property, unit_symbol, test_result) VALUES
  ('[2H]C1([2H])c2ncccc2C(=O)N1Cc1ccc(-c2ccnc3nn(C)cc23)cc1F', 'Emax', '%', 74),
  ('[2H]C1([2H])c2ncccc2C(=O)N1Cc1ccc(-c2cc(F)cc3nn(C)cc23)cc1F', 'Emax', '%', 75),
  ('[2H]C1([2H])c2ncccc2C(=O)N1Cc1c(F)cc(-c2ccc(OCCN(C)C)c3nn(C)cc23)cc1F', 'Emax', '%', 80),
  ('[2H]C1([2H])c2ncccc2C(=O)N1Cc1c(F)cc(-c2ccc(OC(C)COC)c3nn(C)cc23)cc1F (stereo not shown)', 'Emax', '%', 79),
  ('[2H]C1([2H])c2ncccc2C(=O)N1Cc1c(F)cc(-c2ccc(OCC3CN(C(=O)OC(C)(C)C)C3)c3nn(C)cc23)cc1F', 'Emax', '%', 55),
  ('[2H]C1([2H])c2ncccc2C(=O)N1Cc1c(F)cc(-c2cncc3nn(C)cc23)cc1F', 'Emax', '%', 63),
  ('[2H]C1([2H])c2ncccc2C(=O)N1Cc1ccc(-c2ccc(OC3CN(C(=O)OC(C)(C)C)C3)c3nn(C)cc23)cc1F', 'Emax', '%', 60);
